- Assay Name: Solubility of (Ala-Cys)2 and its solubilization by addition of cysteine, turbidity at 600 nm
- Type: physicochemical
- Condition Details: 50 mM (Ala-Cys)2 suspension, phosphate buffer pH=7, 37° C., turbidity at 600 nm after 30 minutes; read-out: concentration of cysteine at which 50 mM (Ala-Cys)2 was fully solubilized
Where a SMILES comes first, the peptide text is derived from it. Bridges are numbered along the chain shown (N, C = ends). Roman numbers before positions name the chains, in order.
Readout Type: solubility

So what's the measured solubility for this one? C[C@H](N)C(=O)N[C@@H](CSSC[C@H](NC(=O)[C@H](C)N)C(=O)O)C(=O)O [(Ala-Cys)2] (I: H-Ala-Cys-OH / II: H-Ala-Cys-OH; disulfide I:2-II:2; N-terminus and C-terminus assumed)
≥ 20 mM

Numbers sourced from patent US20230200424A1.
